All values here come from the supplement of paper PMC11451515.

tested on: SEM cells; assay: cell viability relative to DMSO control; higher = less cytotoxic; conditions: HPLM + 10% dialyzed FBS; 48 h; 15.4 µM
Mark each entry MET if its cell viability sits below 80%, and NOT MET for all others.

| Compound | Assay System | Answer Label |
| --- | --- | --- |
| O=C1CCc2ccc(OCCCCN3CCN(c4cccc(Cl)c4Cl)CC3)cc2N1 | SEM cells | NOT MET |
| COc1cc2ncnc(Nc3cccc(Br)c3)c2cc1OC | SEM cells | NOT MET |
| NC(=O)c1cccc(N)c1 | SEM cells | NOT MET |
| CN1C(=O)/C=C(/NCCN(CCO)CCCC2=CC=C(C=C2)[N+]([O-])=O)N(C)C1=O | SEM cells | NOT MET |
| CN(C)CCN(Cc1ccc(Cl)cc1)c1ccccn1.Cl | SEM cells | NOT MET |
| O=C1N\2CCC3=C([NH]C4=C3C=CC=C4)C2=N/C5=CC=CC=C15 | SEM cells | NOT MET |
| CC[C@@]1(O)C[C@H](O[C@H]2C[C@H](N(C)C)[C@H](O[C@H]3C[C@H](O)[C@H](O[C@H]4CCC(=O)[C@H](C)O4)[C@H](C)O3)[C@H](C)O2)c2c(cc3c(c2O)C(=O)c2c(O)cccc2C3=O)[C@H]1C(=O)OC | SEM cells | MET |
| CC(C)(C)c1cc(C(=O)O)c(NC(=O)Nc2ccc3[nH]ncc3c2)s1 | SEM cells | NOT MET |
| Cc1[nH]c(/C=C2\C(=O)Nc3ccc([S+](=O)([O-])Cc4c(Cl)cccc4Cl)cc32)c(C)c1C(=O)N1CCC[C@@H]1CN1CCCC1 | SEM cells | MET |
| CC(C)c1ccccc1Cc1cc(C(=O)Nc2ccc([S+](=O)([O-])c3ccccc3C(C)(C)C)cc2)c(O)c(O)c1O | SEM cells | NOT MET |
| C[C@@H](N)c1ccc(C(=O)Nc2ccnc3[nH]ccc23)cc1 | SEM cells | NOT MET |
| C[C@@H]1C[C@H]2[C@@H]3CC\C4=C\C(=O)\C=C/[C@]4(C)[C@@]3(Cl)[C@@H](O)C[C@]2(C)[C@@]1(OC(=O)C5=CC=CO5)C(=O)CCl | SEM cells | MET |
| Cc1c(C(=O)Nc2cccc(C(F)(F)F)c2)cc(-c2ccccc2)n1CCCN1CCOCC1 | SEM cells | NOT MET |
| OCCCNc1cc(-c2ccnc(Nc3cccc(Cl)c3)n2)ccn1 | SEM cells | MET |
| NCC(=O)Nc1ccc(-n2nc(C(F)(F)F)cc2-c2ccc3c(ccc4ccccc43)c2)cc1 | SEM cells | NOT MET |
| C[N+](C)([O-])CCNc1ccc(NCC[N+](C)(C)[O-])c2c1C(=O)c1c(O)ccc(O)c1C2=O | SEM cells | MET |
| Cc1cc(Cl)ccc1OCCCC(=O)NO | SEM cells | MET |
| CCCCCCCCCCCCCCCCCCOP(=O)([O-])OC1CC[N+](C)(C)CC1 | SEM cells | NOT MET |
| CN[S+](=O)([O-])CCc1ccc2[nH]cc(C3CCN(C)CC3)c2c1 | SEM cells | NOT MET |
| O=c1[nH]cnc2c1ncn2[C@H]1CC[C@@H](CO)O1 | SEM cells | NOT MET |
| OC(COC1=C2C(=O)\C=C(/OC2=CC=C1)C([O-])=O)COC3=C4C(=O)\C=C(/OC4=CC=C3)C([O-])=O | SEM cells | MET |
| COC1(C[S+]([O-])c2ccccc2)CCN(CCc2c[nH]c3ccc(F)cc23)CC1 (stereo not drawn) | SEM cells | NOT MET |
